molecular target: apoferritin (Equus caballus, UniProt P02791)
Sequence (P02791 2-175 limits assumed): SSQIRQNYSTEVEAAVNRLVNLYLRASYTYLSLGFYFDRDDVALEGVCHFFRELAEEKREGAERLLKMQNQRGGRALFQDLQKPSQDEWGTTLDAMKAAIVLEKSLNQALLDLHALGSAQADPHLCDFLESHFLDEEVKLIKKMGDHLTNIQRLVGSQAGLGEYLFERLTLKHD
pIC50: −log10 of the molar value.
resultType: pIC50

• CC(C)c1cccc(C(C)C)c1O [propofol, reference compound] = 4.64
